Each recorded value in this set is attributed to PubChem BioAssay (NCI).

- Tested on: PC-3 prostate
- assay-overview: NCI-60 one-dose screen, 48 h (100 = growth as untreated, 0 = no growth, -100 = all killed)
- recorded-conditions: 10 µM unless noted
About 83,000 compounds went through this panel and 20% of them were active in at least one assay; those are over-represented in the sample as a whole.
measured-metric: growth (%)
Numbers only, in %.

Field request: growth | item: C=C(C=O)[C@@H]1CC[C@]2(C)[C@H](CC=C3[C@H]4[C@@H](C)[C@H](C)CC[C@]4(C(=O)OC)CC[C@]32C)[C@@]1(C)CCC#N
9.4

Field request: growth | item: CC(=O)O[C@@H]1C(=O)N(c2cnccn2)[C@H]1c1ccccc1[N+](=O)[O-]
24.6

Field request: growth | item: COc1cc(-c2nn(C(C)(C)C)cc2-c2ccnc(NCCCNS(=O)(=O)c3cccc(F)c3)n2)ccc1Cl
51.3

Field request: growth | item: CNC(=O)c1cc(N2CCc3cc(NC(=O)Nc4ccc(Cl)c(C(F)(F)F)c4)ccc32)ccn1
29

Field request: growth | item: COc1cccc(N2CCN(c3ncnc4c3[nH]c3ccc(F)cc34)C[C@H]2C)c1
38.2

Field request: growth | item: O=C(Nc1ccc(F)c(F)c1)c1cc(-c2ccc(F)cc2F)ccc1O
8.32

Batch request: growth per item, same order as input.
1. Cc1nc(-c2ccccc2O)ccc1C(=O)N=Nc1c(O)[nH]c2ccc(Br)cc12
2. Cc1noc(C)c1CSc1nc2ccccc2n1-c1ccccc1
3. CCOc1ccc(NC2=C(Cl)C(=O)c3nc(C)ccc3C2=O)cc1

88.2
100
10.4
